Every entry's value here was drawn from PubChem BioAssay AID602335.

biological target: Monoacylglycerol lipase ABHD6 (Mus musculus) (UniProt Q8R2Y0); experiment: in situ ABHD6 versus DAGLb inhibition – cell-based, gel-based competitive ABPP, fluorescence, selectivity assay for DAGLb inhibitor project, dose response (AID 602335)
Sequence (Q8R2Y0 whole entry, looked up): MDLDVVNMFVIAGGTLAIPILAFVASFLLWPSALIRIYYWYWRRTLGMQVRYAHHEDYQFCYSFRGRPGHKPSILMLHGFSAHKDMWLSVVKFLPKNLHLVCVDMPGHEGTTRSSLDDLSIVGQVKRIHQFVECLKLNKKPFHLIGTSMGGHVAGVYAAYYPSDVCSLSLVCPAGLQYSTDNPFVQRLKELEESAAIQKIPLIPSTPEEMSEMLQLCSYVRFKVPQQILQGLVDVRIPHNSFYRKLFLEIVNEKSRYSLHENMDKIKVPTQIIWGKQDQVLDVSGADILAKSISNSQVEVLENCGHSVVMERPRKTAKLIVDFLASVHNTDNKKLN
Exercise: for every item that follows, state its recorded pIC50.
Give bare numbers, as −log10 of the molar value.

Enquiry: Report pIC50 for O=C(N1CCCCC1c1ccccc1)n1cc(-c2ccc(-c3ccccc3)cc2)nn1 (configuration not stated) please.
Return: 9.77

Pending molecule:
Enquiry: Report pIC50 for COc1ccc(-c2ccc(-c3cn(C(=O)N4CCCCC4c4ccccc4)nn3)cc2)cc1 (configuration not stated) please.
Return: 8.89
